# experimentalTarget: T1, WW1-WW2 tandem domains (residues 16-91) of human WWOX (human, UniProt Q9NZC7 16-91)
# T1 sequence (looked up): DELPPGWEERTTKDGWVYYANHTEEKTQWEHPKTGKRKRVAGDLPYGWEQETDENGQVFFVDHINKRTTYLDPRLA
# protocolText: ITC
measuredProperty: Kd

Exercise: Please give the measured Kd for this binder: PGTPPPPYTVAP [WBP1_PY2 peptide (12-mer spanning the PY2 PPXY motif of human WBP1)]
Solution: 132 µM

Exercise: Please give the measured Kd for this binder: STFKPPAYEDVV [WBP1_PY1 peptide (12-mer spanning the PY1 PPXY motif of human WBP1)]
Solution: > 1000 µM

Exercise: Please give the measured Kd for this binder: VQPPPPPYPGPM [WBP2_PY2 peptide (12-mer spanning the PY2 PPXY motif of human WBP2)]
Solution: 326 µM
